Where these numbers come from: patent US9029063B2

Assay explanation: Solubility in Dowanol PM (2-methoxy propanol)
Assay type: physicochemical
Experimental parameters: 20 °C, organic solvent or mixture, Dowanol PM (2-methoxy propanol); Table IV; read-out: S1, solubility of IR Dye in Dowanol PM
Excerpt: The imagable layers comprise a radiation-sensitive imaging composition that includes one or more infrared radiation absorbing dyes. […] 2-Methoxy propanol (or propylene glycol methyl ether) is available from various commercial sources, and for example, can be obtained in Dowanol® PM. […]
Measurement name: solubility (mg/mL)
Provide only the numeric value, understood in mg/mL.

| Item smiles | Output unit | solubility |
| --- | --- | --- |
| CN1/C(=C/C=C2\CCCC(/C=C/C3=[N+](C)c4ccccc4C3(C)C)=C2Sc2nnnn2-c2ccccc2)C(C)(C)c2ccccc21 | mg/mL | 192 |

Okay, next one:
Fill in the blank: the reported solubility of `C=Cc1ccc(CSc2nnc(SC3=C(/C=C/C4=[N+](C)c5ccccc5C4(C)C)CCC/C3=C\C=C3\N(C)c4ccccc4C3(C)C)s2)cc1` is ____.
128

---

Assay explanation: Solubility in Dowanol PM (2-methoxy propanol)
Type: physicochemical
Experimental parameters: 20 °C, organic solvent or mixture, tetraphenylborate salt of the dye cation; Dowanol PM; Table I; read-out: S2, Solubility of the tetraphenylborate salt of the IR cation in Dowanol PM
Measurement name: solubility (µg/mL)
Provide only the numeric value, understood in µg/mL.

Worked examples follow.
| Item smiles | Output unit | solubility |
| --- | --- | --- |
| C=Cc1ccc(CSc2nnc(SC3=C(/C=C/C4=[N+](C)c5ccccc5C4(C)C)CCC/C3=C\C=C3\N(C)c4ccccc4C3(C)C)s2)cc1 | µg/mL | 4800 |
| CN1/C(=C/C=C2\CCCC(/C=C/C3=[N+](C)c4ccccc4C3(C)C)=C2Sc2ccc(C(C)(C)C)cc2)C(C)(C)c2ccccc21 | µg/mL | 21000 |

Fill in the blank: the reported solubility of `CN1/C(=C/C=C2\CCCC(/C=C/C3=[N+](C)c4ccccc4C3(C)C)=C2Sc2nnnn2-c2ccccc2)C(C)(C)c2ccccc21` is ____.
1400
